# assay.summary: recombinant UMI read abundance after kanamycin selection (control-corrected) (log10(CPM+1)); higher = more efficient recombination; extreme values may be limits of the assay; sequences stand for … in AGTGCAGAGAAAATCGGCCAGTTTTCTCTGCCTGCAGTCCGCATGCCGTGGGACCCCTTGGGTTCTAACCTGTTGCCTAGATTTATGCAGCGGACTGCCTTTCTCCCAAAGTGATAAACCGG…AGGTTGGTTTCACT; site = the 11-nt donor
Please mark met if the recorded recombinant UMI read abundance (log10) is equal to or greater than 0.02, and not met if it falls below.

| sequence | group.label |
| --- | --- |
| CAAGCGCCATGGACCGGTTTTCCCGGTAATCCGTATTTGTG (site CAAGCCCCTCA) | not met |
| ACTGTAACATGGACCGGTTTTCCCGGTAATCCGTATTTGCT (site AGTGTAACTAG) | met |
| TAACGTCCATGGACCGGTTTTCCCGGTAATCCGTATTTGTA (site TAATGTCCTTA) | not met |
| CAAACGCCATGGACCGGTTTTCCCGGTAATCCGTATTTGTG (site CAAACGCCTCA) | met |

// next entry
Lookup: Exam item: decide whether the reported recombinant UMI read abundance (log10) for GTGAGTGCATGGACCGGTTTTCCCGGTAATCCGTATTTGAG (site GTGAGTGCTCT) is at least 0.02.
Found: met

----------
# assay.summary: recombinant UMI read abundance after kanamycin selection (control-corrected) (log10(CPM+1)); higher = more efficient recombination; extreme values may be limits of the assay; sequences stand for … in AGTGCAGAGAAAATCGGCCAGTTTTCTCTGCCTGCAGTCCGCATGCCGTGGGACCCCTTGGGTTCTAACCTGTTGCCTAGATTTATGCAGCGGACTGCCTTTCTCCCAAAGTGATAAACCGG…AGGTTGGTTTCACT; site = the 11-nt donor
measured.quantity: recombinant UMI read abundance (log10)
// return a plain number; no unit text

Lookup: # query: recombinant UMI read abundance (log10) of entry CCCCAATCATGGACCGGTTTTCCCGGTAATCCGTATTTGTG (site CCCCAATCTCA)
Found: 0.678

Lookup: # query: recombinant UMI read abundance (log10) of entry CACTCATCATGGACCGGTTTTCCCGGTAATCCGTATTTGCC (site CACTCCTCTGG)
Found: 0.652

Lookup: # query: recombinant UMI read abundance (log10) of entry TTTGCGGCATGGACCGGTTTTCCCGGTAATCCGTATTTGCA (site TTTGCGGCTGG)
Found: 0

Lookup: # query: recombinant UMI read abundance (log10) of entry AGGAATACATGGACCGGTTTTCCCGGTAATCCGTATTTGAC (site AGGACTACTGT)
Found: 0.624

Lookup: # query: recombinant UMI read abundance (log10) of entry GGCTATCCATGGACCGGTTTTCCCGGTAATCCGTATTTGAA (site GGCGATCCTTT)
Found: 0.0136

Lookup: # query: recombinant UMI read abundance (log10) of entry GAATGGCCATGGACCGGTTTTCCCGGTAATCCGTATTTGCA (site AAATGGCCTTG)
Found: 0

Lookup: # query: recombinant UMI read abundance (log10) of entry TTAGCTGCATGGACCGGTTTTCCCGGTAATCCGTATTTGTT (site TTAGCTGCTGA)
Found: 0.423

Lookup: # query: recombinant UMI read abundance (log10) of entry GTAGCGACATGGACCGGTTTTCCCGGTAATCCGTATTTGTC (site GTAGCGACTGA)
Found: 2.92

----------
Measured recombinant barcode read abundance (log10) by item
# assay.summary: recombinant barcode read abundance after kanamycin selection (control-corrected) (log10(CPM+1)); higher = more efficient recombination; sequences stand for … in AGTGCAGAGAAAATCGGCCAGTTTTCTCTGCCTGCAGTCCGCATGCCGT…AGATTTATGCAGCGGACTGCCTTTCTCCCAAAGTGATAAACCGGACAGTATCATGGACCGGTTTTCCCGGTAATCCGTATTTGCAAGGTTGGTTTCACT; site = the 11-nt target
// return a plain number; no unit text

Example entries begin here.
| sequence | readout.number |
| --- | --- |
| ATATGAGCTTGGGTTCTAACCTGTTGCCG (site ATATGTGCTCG) | 0.167 |
| TGGGTGACTTGGGTTCTAACCTGTTGCCT (site GCCTGCCCTCA) | 0.422 |
| GGATTTACTTGGGTTCTAACCTGTTGCCT (site GGATATACTAG) | 0.0849 |
| TACCGGCCTTGGGTTCTAACCTGTTGCCT (site TAACGGCCTAG) | 0.288 |

API: the following record is the query input.
Lookup: # query: recombinant barcode read abundance (log10) of entry TACCGGCCTTGGGTTCTAACCTGTTGCCT (site TAGCGGCCTAG)
Found: 0.176

----------
# assay.summary: recombinant UMI read abundance after kanamycin selection (control-corrected) (log10(CPM+1)); higher = more efficient recombination; extreme values may be limits of the assay; sequences stand for … in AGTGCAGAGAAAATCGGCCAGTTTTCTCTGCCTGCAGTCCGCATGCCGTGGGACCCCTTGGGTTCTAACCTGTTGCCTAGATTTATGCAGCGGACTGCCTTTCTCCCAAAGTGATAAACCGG…AGGTTGGTTTCACT; site = the 11-nt donor
Measured recombinant UMI read abundance (log10) by item
// return a plain number; no unit text

Example entries begin here.
| sequence | recombinant UMI read abundance (log10) |
| --- | --- |
| TAATTCACATGGACCGGTTTTCCCGGTAATCCGTATTTGGG (site TAATTCACTCC) | 0.0061 |
| GCTCGGGCATGGACCGGTTTTCCCGGTAATCCGTATTTGAG (site GCTCGGGCTCT) | 0.866 |
| GGATAGACATGGACCGGTTTTCCCGGTAATCCGTATTTGCG (site GGATAGACTCG) | 2.55 |
| GCGATAGCATGGACCGGTTTTCCCGGTAATCCGTATTTGTC (site GCGATAGCTGA) | 2.34 |

API: the following record is the query input.
Lookup: # query: recombinant UMI read abundance (log10) of entry CGACAATCATGGACCGGTTTTCCCGGTAATCCGTATTTGAC (site CGACAATCTGT)
Found: 2.86

----------
# assay.summary: recombinant UMI read abundance after kanamycin selection (control-corrected) (log10(CPM+1)); higher = more efficient recombination; extreme values may be limits of the assay; sequences stand for … in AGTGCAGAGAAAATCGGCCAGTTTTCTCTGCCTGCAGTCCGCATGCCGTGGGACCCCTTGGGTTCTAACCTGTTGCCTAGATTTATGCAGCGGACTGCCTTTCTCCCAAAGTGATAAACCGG…AGGTTGGTTTCACT; site = the 11-nt donor
measured.quantity: recombinant UMI read abundance (log10)
// return a plain number; no unit text

Example entries begin here.
| sequence | recombinant UMI read abundance (log10) |
| --- | --- |
| TAGACTTCATGGACCGGTTTTCCCGGTAATCCGTATTTGGT (site TAGCCTTCTAC) | 0.0272 |
| CCAGGACCATGGACCGGTTTTCCCGGTAATCCGTATTTGGG (site CCAGGACCTCC) | 0.00761 |
| GGGAAAACATGGACCGGTTTTCCCGGTAATCCGTATTTGCT (site GTGAAAACTAG) | 0 |
| AACGGGGCATGGACCGGTTTTCCCGGTAATCCGTATTTGCG (site AACGGGGCTCG) | 1.19 |

API: the following record is the query input.
Lookup: # query: recombinant UMI read abundance (log10) of entry GACAAACCATGGACCGGTTTTCCCGGTAATCCGTATTTGAT (site GACAAACCTAT)
Found: 0

----------
# assay.summary: recombinant barcode read abundance after kanamycin selection (control-corrected) (log10(CPM+1)); higher = more efficient recombination; sequences stand for … in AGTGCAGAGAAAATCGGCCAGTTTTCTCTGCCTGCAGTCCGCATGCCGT…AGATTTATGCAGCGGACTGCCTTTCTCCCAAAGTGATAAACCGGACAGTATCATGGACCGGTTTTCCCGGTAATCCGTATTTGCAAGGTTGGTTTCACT; site = the 11-nt target
Measured recombinant barcode read abundance (log10) by item
// return a plain number; no unit text

Example entries begin here.
| sequence | readout.number |
| --- | --- |
| CCTCACTCTTGGGTTCTAACCTGTTGCGG (site CCTCACTCTCC) | 1.66 |
| TCCCAGTCTTGGGTTCTAACCTGTTGCCT (site TCCCAGTCTAG) | 1.82 |
| TCTCACCCTTGGGTTCTAACCTGTTGCCT (site TCTCACCCTAG) | 0.516 |

Lookup: # query: recombinant barcode read abundance (log10) of entry GAGGGCCCTTGGGTTCTAACCTGTTGCTG (site GAGGGCCCTCG)
Found: 2.03

Lookup: # query: recombinant barcode read abundance (log10) of entry TATTATCCTTGGGTTCTAACCTGTTGCCT (site TATTACCCTAG)
Found: 0.0929
